# system under test: JAK3 (Homo sapiens, UniProt P52333)
# Construct: The Ramos B-cell line was acquired from ATCC (ATCC Catalog No. CRL-1596); host or cells: Ramos B-cell line (human)
# Sequence (P52333 1-1124): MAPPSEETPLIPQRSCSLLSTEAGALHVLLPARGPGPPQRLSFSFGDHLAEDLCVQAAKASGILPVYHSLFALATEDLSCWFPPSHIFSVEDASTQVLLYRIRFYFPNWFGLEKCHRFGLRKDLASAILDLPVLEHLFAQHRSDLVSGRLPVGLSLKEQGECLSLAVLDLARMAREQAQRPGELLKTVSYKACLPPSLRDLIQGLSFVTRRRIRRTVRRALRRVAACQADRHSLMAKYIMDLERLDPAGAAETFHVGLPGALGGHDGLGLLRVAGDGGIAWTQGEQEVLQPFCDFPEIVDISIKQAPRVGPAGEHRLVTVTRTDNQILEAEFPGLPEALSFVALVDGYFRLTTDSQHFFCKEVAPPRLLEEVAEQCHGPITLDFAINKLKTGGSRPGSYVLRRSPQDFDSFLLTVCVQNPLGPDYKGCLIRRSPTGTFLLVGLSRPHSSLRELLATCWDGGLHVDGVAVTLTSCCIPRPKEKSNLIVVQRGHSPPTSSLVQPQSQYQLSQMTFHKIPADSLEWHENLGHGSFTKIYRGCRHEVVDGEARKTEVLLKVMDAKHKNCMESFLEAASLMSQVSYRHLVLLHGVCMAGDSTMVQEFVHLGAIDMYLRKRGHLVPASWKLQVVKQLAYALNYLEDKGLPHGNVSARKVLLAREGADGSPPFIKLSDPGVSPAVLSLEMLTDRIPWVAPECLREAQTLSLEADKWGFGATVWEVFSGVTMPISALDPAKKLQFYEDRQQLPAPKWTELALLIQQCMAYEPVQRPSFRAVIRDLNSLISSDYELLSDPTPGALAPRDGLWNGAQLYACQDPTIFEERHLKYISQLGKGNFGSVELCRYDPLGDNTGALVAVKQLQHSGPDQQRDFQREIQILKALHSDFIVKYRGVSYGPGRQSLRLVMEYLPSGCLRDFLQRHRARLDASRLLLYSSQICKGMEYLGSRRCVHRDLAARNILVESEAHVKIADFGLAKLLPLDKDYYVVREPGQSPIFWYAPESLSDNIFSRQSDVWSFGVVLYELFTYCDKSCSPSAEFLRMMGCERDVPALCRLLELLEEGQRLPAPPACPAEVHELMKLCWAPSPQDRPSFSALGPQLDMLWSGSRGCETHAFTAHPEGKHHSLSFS
# test name: Assay for CD23 expression on Ramos B-cells stimulated by IL-4 (Table IV: ability to inhibit JAK3 activity)
# Type: cell-based
# run conditions: tested under conditions described in Example 3 (so in the source)
# Experimental: One means of assaying for such inhibition is detection of the effect of the 2,4-pyrimidinediamine compounds on the upregulation of downstream gene products. […] 20 to 24 hours post stimulation, cells are stained for upregulation of CD23 and analyzed using FACS. […]
Counter-ions that a name gives are not always drawn.
measured attribute: IC50

Look over these answered cases.
> print(dat)
                                   compound  measured.attribute  result.value
1  COc1cc(Nc2ncc(C)c(Nc3ccc4oc(=O)n(C)c4c3)n2)cc(C)c1F [Compound I-127, trifluoroacetate salt]                IC50      < 500 nM
2  [2H]C([2H])([2H])c1c(C)cc(Nc2ncc(F)c(Nc3ccc4oc(=O)[nH]c4c3)n2)cc1C [Compound I-37, trifluoroacetate salt]                IC50    > 10000 nM
3  COc1cc(Nc2ncc(C)c(Nc3ccc4oc(=O)[nH]c4c3)n2)cc(C)c1F                IC50      < 500 nM
4  O=c1[nH]c2cc(Nc3nc(Nc4ccc(C(F)(F)F)cc4)ncc3Cl)ccc2o1 [Compound I-15, trifluoroacetate salt]                IC50      < 500 nM
5  COc1c(F)ccc(Nc2ncc(Cl)c(Nc3ccc4oc(=O)[nH]c4c3)n2)c1F [Compound I-7, trifluoroacetate salt]                IC50      < 500 nM

### Prompt Let me know recorded IC50 for COc1ccc(Nc2ncc(F)c(Nc3ccc4oc(=O)[nH]c4c3)n2)cc1-c1ccncc1 [Compound I-208, formate salt] , thanks.
### Response < 500 nM

### Prompt Let me know recorded IC50 for "Cc1cc(Nc2ncc(CN3CCCC3)c(Nc3ccc4oc(=O)[nH]c4c3)n2)cc(C)c1C" , thanks.
### Response 5000 to 10000 nM
